Data provenance is patent US11731944B2.

TARGET: SARS-CoV-2 MPRO (Severe acute respiratory syndrome coronavirus 2 (2019-nCoV) (SARS-CoV-2), UniProt P0DTD1)
TEST_DETAILS: SARS-CoV-2 Mpro enzymatic assay (FRET substrate cleavage)
Format: biochemical
TEST_SETTINGS: C-His6-tagged SARS-CoV-2 MPRO 25 nM, 30 min pre-incubation at RT, 60 min at 30° C., 10 doses from 25 μM; read-out: M pro IC50
IC50 reference
MEASUREMENT_NAME: IC50

- COMPOUND: "C[C@@](C(=O)NC1CCOC1)(c1cncnc1)N(C(=O)[C@H](F)Cl)c1ccc(OC(F)(F)F)cc1 (single isomer, unassigned) [Example 6d]"
  RESULT: "> 10000 nM"
- COMPOUND: "C[C@](C(=O)NC1CCC(F)(F)CC1)(c1cncnc1)N(C(=O)[C@H](F)Cl)c1ccc(-c2cncs2)cc1 (single isomer, unassigned)"
  RESULT: "< 100 nM"
- COMPOUND: "C[C@](C(=O)NC1CCOCC1)(c1cncnc1)N(C(=O)[C@H](F)Cl)c1ccc(C2(C(F)(F)F)CC2)cc1 [Example 29a]"
  RESULT: "100 to 1000 nM"

* * *

TARGET: SARS-CoV-2 MPRO (Severe acute respiratory syndrome coronavirus 2 (2019-nCoV) (SARS-CoV-2))
TEST_DETAILS: SARS-CoV-2 Mpro enzymatic assay (FRET substrate cleavage)
Assay type: biochemical
TEST_SETTINGS: M pro IC50, C-His6-tagged SARS-CoV-2 MPRO 25 nM, 30 min pre-incubation at RT, 60 min at 30° C., 10 doses from 25 μM
pIC50: −log10 of the molar value.

- COMPOUND: "C[C@@](C(=O)NC1CCC(F)(F)CC1)(c1cncc(F)c1)N(C(=O)[C@H](F)Cl)c1ccc(OC(F)(F)F)cc1 [Example 11b]"
  TARGET: "SARS-CoV-2 MPRO (Severe acute respiratory syndrome coronavirus 2 (2019-nCoV) (SARS-CoV-2))"
  pIC50: "5.00 to 6.00"
- COMPOUND: "C[C@](C(=O)NC1CCOCC1)(c1cncnc1)N(C(=O)[C@H](F)Cl)c1ccc(OC(F)(F)F)cc1F [Example 27a]"
  TARGET: "SARS-CoV-2 MPRO (Severe acute respiratory syndrome coronavirus 2 (2019-nCoV) (SARS-CoV-2))"
  pIC50: "6.00 to 7.00"
- COMPOUND: "Cn1ccc([C@@](C)(C(=O)NC2CCC(F)(F)CC2)N(C(=O)[C@H](F)Cl)c2ccc(OC(F)(F)F)cc2)cc1=O (single isomer, unassigned) [Example 13b]"
  TARGET: "SARS-CoV-2 MPRO (Severe acute respiratory syndrome coronavirus 2 (2019-nCoV) (SARS-CoV-2))"
  pIC50: "< 5.00"
- COMPOUND: "CC1(C)COCC[C@@H]1NC(=O)[C@](C)(c1cncnc1)N(C(=O)[C@H](F)Cl)c1ccc(OC(F)(F)F)cc1 (single isomer, unassigned) [Example 76d]"
  TARGET: "SARS-CoV-2 MPRO (Severe acute respiratory syndrome coronavirus 2 (2019-nCoV) (SARS-CoV-2))"
  pIC50: "< 5.00"
- COMPOUND: "CC1(C)C[C@H](NC(=O)[C@](C)(c2cncnc2)N(C(=O)[C@H](F)Cl)c2ccc(OC(F)(F)F)cc2)CCO1 (single isomer, unassigned) [Example 77c]"
  TARGET: "SARS-CoV-2 MPRO (Severe acute respiratory syndrome coronavirus 2 (2019-nCoV) (SARS-CoV-2))"
  pIC50: "5.00 to 6.00"
- COMPOUND: "C[C@](C(=O)NC1CCC(F)(F)CC1)(c1cncnc1)N(C(=O)[C@H](F)Cl)c1ccc(OC(F)(F)F)cc1F [Example 26a]"
  TARGET: "SARS-CoV-2 MPRO (Severe acute respiratory syndrome coronavirus 2 (2019-nCoV) (SARS-CoV-2))"
  pIC50: "6.00 to 7.00"

* * *

TARGET: SARS-CoV-2 MPRO (Severe acute respiratory syndrome coronavirus 2 (2019-nCoV) (SARS-CoV-2), UniProt P0DTD1)
TEST_DETAILS: SARS-CoV-2 Mpro enzymatic assay (FRET substrate cleavage)
Assay type: biochemical
TEST_SETTINGS: C-His6-tagged SARS-CoV-2 MPRO 25 nM, 30 min pre-incubation at RT, 60 min at 30° C., 10 doses from 25 μM; read-out: M pro IC50
IC50 reference

- MOLECULE: "Cn1ccc([C@](C)(C(=O)NC2CCC(F)(F)CC2)N(C(=O)[C@H](F)Cl)c2ccc(OC(F)(F)F)cc2)cc1=O [Example 13a]"
  IC50: "> 10000 nM"
- MOLECULE: "C[C@](C(=O)NC1CCOCC1)(c1cncnc1)N(C(=O)[C@H](F)Cl)c1ccc(C(F)(F)C(F)(F)F)cc1 [Example 108a]"
  IC50: "100 to 1000 nM"
- MOLECULE: "C[C@@](C(=O)NC1CCC(F)(F)CC1)(c1cncnc1)N(C(=O)[C@H](F)Cl)c1ccc(-c2nccs2)cc1 [Example 100b]"
  IC50: "100 to 1000 nM"
- MOLECULE: "[2H][C@](C(=O)NC1CCC(F)(F)CC1)(c1cncnc1)N(C(=O)[C@H](F)Cl)c1ccc(OC(F)(F)F)cc1"
  IC50: "< 100 nM"
- MOLECULE: "C[C@@](C(=O)NC1CCC(F)(F)CC1)(c1cncc(F)c1)N(C(=O)[C@H](F)Cl)c1ccc(SC(F)(F)F)cc1 [Example 95b]"
  IC50: "1000 to 10000 nM"
- MOLECULE: "C[C@@](C(=O)NC1CCC(F)(F)CC1)(c1cncc(F)c1)N(C(=O)[C@H](F)Cl)c1ccc(OC(F)(F)Cl)cc1 [Example 99b]"
  IC50: "1000 to 10000 nM"
- MOLECULE: "C[C@](C(=O)NC1CCC(F)(F)CC1)(c1cncnc1)N(C(=O)[C@H](F)Cl)c1ccc(C2(C(F)(F)F)CC2)cc1 [Example 28a]"
  IC50: "< 100 nM"
- MOLECULE: "C[C@@](C(=O)NC1CCOCC1)(c1cncnc1)N(C(=O)[C@H](F)Cl)c1ccc(OC(F)(F)C(F)(F)F)cc1 [Example 32b]"
  IC50: "1000 to 10000 nM"
- MOLECULE: "C[C@](C(=O)Nc1ccc(Cl)cc1F)(c1cncnc1)N(C(=O)[C@H](F)Cl)c1ccc(OC(F)(F)F)cc1 [Example 110a]"
  IC50: "< 100 nM"
- MOLECULE: "C[C@@](C(=O)NC1CCOCC1)(c1cncnc1)N(C(=O)C(Cl)Cl)c1ccc(OC(F)(F)Cl)cc1 [Example 115b]"
  IC50: "1000 to 10000 nM"
- MOLECULE: "C[C@](C(=O)NC1CCC(F)(F)CC1)(c1cncc(F)c1)N(C(=O)[C@H](F)Cl)c1ccc(OC(F)(F)Cl)cc1 [Example 99a]"
  IC50: "< 100 nM"
- MOLECULE: "C[C@](C(=O)NC1CCOCC1)(c1cncnc1)N(C(=O)[C@H](F)Cl)c1ccc(S(F)(F)(F)(F)F)cc1 [Example 23a]"
  IC50: "1000 to 10000 nM"
- MOLECULE: "C[C@](C(=O)NC1CCOCC1)(c1cccnc1)N(C(=O)[C@H](F)Cl)c1ccc(OC(F)(F)Cl)cc1 [Example 111a]"
  IC50: "< 100 nM"
- MOLECULE: "C[C@](C(=O)NC1CCC(F)(F)CC1)(c1cncnc1)N(C(=O)[C@H](F)Cl)c1ccc(-c2ccno2)cc1"
  IC50: "< 100 nM"
- MOLECULE: "C[C@](C(=O)NC1CCOCC1)(c1cccnc1)N(C(=O)[C@H](F)Cl)c1ccc(SC(F)(F)F)cc1 [Example 105a]"
  IC50: "< 100 nM"
- MOLECULE: "C[C@](C(=O)NC1CCC(F)(F)CC1)(c1cncnc1)N(C(=O)[C@H](F)Cl)c1ccc(-c2nccs2)cc1 [Example 100a]"
  IC50: "< 100 nM"
- MOLECULE: "C[C@@](C(=O)NC1CCOCC1)(c1cccnc1)N(C(=O)[C@H](F)Cl)c1ccc(OC(F)(F)Cl)cc1 [Example 111b]"
  IC50: "> 10000 nM"
- MOLECULE: "CC1(C)C[C@@H](NC(=O)[C@@](C)(c2cncnc2)N(C(=O)[C@H](F)Cl)c2ccc(OC(F)(F)F)cc2)CCO1 [Example 77b]"
  IC50: "< 100 nM"
- MOLECULE: "C[C@@](C(=O)NC1CCC(F)(F)CC1)(c1cncnc1)N(C(=O)[C@H](F)Cl)c1ccc(-c2ccno2)cc1"
  IC50: "1000 to 10000 nM"
- MOLECULE: "C[C@@](C(=O)NC1CCC(F)(F)CC1)(c1cncnc1)N(C(=O)[C@H](F)Cl)c1ccc(SC(F)(F)F)cc1 [Example 33b]"
  IC50: "100 to 1000 nM"
- MOLECULE: "CC1(C)C[C@H](NC(=O)[C@@](C)(c2cncnc2)N(C(=O)[C@H](F)Cl)c2ccc(OC(F)(F)F)cc2)CCO1 (single isomer, unassigned) [Example 77a]"
  IC50: "< 100 nM"
- MOLECULE: "C[C@@](C(=O)Nc1ccc(Cl)cc1F)(c1cncnc1)N(C(=O)[C@H](F)Cl)c1ccc(OC(F)(F)F)cc1 [Example 110b]"
  IC50: "1000 to 10000 nM"
- MOLECULE: "C[C@@](C(=O)NC1CCC(F)(F)CC1)(c1cncnc1)N(C(=O)[C@H](F)Cl)c1ccc2c(c1)OC(F)(F)O2 [Example 113b]"
  IC50: "> 10000 nM"
- MOLECULE: "C[C@@](C(=O)NC1CCOCC1)(c1cncc(F)c1)N(C(=O)[C@H](F)Cl)c1ccc(S(F)(F)(F)(F)F)cc1 [Example 97b]"
  IC50: "> 10000 nM"
- MOLECULE: "C[C@](C(=O)NC1CCC(F)(F)CC1)(c1cncnc1)N(C(=O)[C@H](F)Cl)c1cccc(OC(F)(F)F)c1 [Example 112a]"
  IC50: "100 to 1000 nM"
- MOLECULE: "C[C@@](C(=O)NC1CCC(F)(F)CC1)(c1cncnc1)N(C(=O)[C@H](F)Cl)c1ccc(OC(F)(F)F)cc1"
  IC50: "1000 to 10000 nM"
- MOLECULE: "C[C@](C(=O)NC1CCC(F)(F)CC1)(c1cncc(F)c1)N(C(=O)[C@H](F)Cl)c1ccc(-c2nccs2)cc1 [Example 102a]"
  IC50: "< 100 nM"
